Biological target: FGFR3 (UniProt P22607)
Sequence (P22607 whole entry, looked up): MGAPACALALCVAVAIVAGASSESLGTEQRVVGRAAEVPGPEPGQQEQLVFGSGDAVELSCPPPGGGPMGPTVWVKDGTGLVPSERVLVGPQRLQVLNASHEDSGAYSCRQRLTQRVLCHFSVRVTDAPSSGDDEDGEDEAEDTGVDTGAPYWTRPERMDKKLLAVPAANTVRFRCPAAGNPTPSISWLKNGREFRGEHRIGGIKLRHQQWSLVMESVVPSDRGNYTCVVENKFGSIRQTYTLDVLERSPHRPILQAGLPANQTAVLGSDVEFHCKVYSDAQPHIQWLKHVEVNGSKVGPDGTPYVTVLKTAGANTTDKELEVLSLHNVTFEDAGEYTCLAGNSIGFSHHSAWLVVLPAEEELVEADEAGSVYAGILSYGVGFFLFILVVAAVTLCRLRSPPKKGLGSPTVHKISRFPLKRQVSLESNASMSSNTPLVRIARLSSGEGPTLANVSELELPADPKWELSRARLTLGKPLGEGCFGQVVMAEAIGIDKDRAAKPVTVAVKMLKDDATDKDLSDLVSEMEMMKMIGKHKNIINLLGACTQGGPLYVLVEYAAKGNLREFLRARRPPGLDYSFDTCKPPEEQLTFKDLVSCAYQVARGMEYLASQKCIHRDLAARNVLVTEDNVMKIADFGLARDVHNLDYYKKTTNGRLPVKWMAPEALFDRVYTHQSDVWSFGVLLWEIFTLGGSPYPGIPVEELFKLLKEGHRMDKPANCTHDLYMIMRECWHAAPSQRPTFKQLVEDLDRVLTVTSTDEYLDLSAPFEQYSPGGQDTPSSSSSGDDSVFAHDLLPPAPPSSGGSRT
Experiment: phosphorylation enrichment, bacterial display (enrichment ratio); higher = better substrate or ligand; peptides without Tyr show the background;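 further: 11-residue human phosphosite peptides and single-mutation variants displayed on the E. coli surface, counted by deep sequencing, each peptide's frequency after selection divided by its frequency in the unselected input library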;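 further: frequency after pTyr selection over input frequency; kinase dosed for 20-30% of maximal phosphorylation in three min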
Reported values of phosphorylation enrichment for individual entries
assay_metric: phosphorylation enrichment

sequence_string	obs_value
SLFNGYVYSGM [NEIL3_Y71_V76M]	0.659
PLKFLYPNIDR [STAT1_Y668_K673R_YF]	0.953
GLPQTYCVSGP [DYSF_Y1684]	0.655
PPLMLYNPTTF [EGFR_Y270_YF]	0.857
KLADMYGGGKD [CDH1_Y876_E880K]	0.424
RAVLLYEYVGK [NATD1_Y45]	3.99
YGSSSYGGAGG [RPA2_Y14]	0.409
RREWYYEVIIV [BACE1_Y260]	2.03
TLERHYKELQA [SPTBN2_Y834_E835K]	0.509
AGADGYGFLAP [FOXL2_Y186_YF]	0.694
PAVGIYNDNIN [CDCP1_Y707]	0.575
KVGPGSLGSGG [RET_Y826_Y826S]	0.366
KVALVYGQMNE [ATP5F1B_Y269]	0.606
KALKQYRASPS [DDX27_Y763_G766S]	0.309
